Reported pIC50 values, Protein disulfide-isomerase (Homo sapiens, UniProt P07237).
pIC50: −log10 of the molar value.

[
  {
    "compound": "CCCCCCCCOC(=O)c1ccc(O)cc1 [Juniferdin derivative, 8]",
    "pIC50": "< 5.00"
  },
  {
    "compound": "C/C1=C\\CC(OC(=O)c2ccc(O)cc2)[C@@]2(C)O[C@@H]2[C@@H](O)C(C)(C)CCC1 (stereo partly drawn) [Juniferdin derivative, 14]",
    "pIC50": 5.60
  },
  {
    "compound": "COc1ccc(C(=O)OC2C/C=C(\\C)CCCC(C)(C)[C@H](O)/C=C/2C)cc1 (stereo partly drawn) [Juniferdin derivative, 2]",
    "pIC50": "< 5.00"
  }
]

* * *

Entries annotated with measured pIC50
target: Protein disulfide-isomerase (Homo sapiens); assay: Reductase Activity Assay; settings: pH 7
Sequence (P07237 whole entry): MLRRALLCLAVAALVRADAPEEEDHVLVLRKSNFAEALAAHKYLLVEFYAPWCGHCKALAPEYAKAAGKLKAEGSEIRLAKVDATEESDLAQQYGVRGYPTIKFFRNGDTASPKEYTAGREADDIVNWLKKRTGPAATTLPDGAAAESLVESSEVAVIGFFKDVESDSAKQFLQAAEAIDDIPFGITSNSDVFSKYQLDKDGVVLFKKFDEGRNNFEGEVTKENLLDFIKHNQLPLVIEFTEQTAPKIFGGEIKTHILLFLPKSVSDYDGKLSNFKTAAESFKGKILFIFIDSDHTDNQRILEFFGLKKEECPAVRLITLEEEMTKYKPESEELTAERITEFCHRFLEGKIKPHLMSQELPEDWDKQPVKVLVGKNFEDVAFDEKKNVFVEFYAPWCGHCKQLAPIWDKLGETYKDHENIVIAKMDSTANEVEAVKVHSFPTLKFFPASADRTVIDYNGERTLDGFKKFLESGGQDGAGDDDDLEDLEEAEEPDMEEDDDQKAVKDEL
pIC50: −log10 of the molar value.
valueType: pIC50

[
  {
    "molecule": "CC(=O)Oc1ccc(C(=O)OC2C/C=C(\\C)CCCC(C)(C)[C@H](OC(C)=O)/C=C/2C)cc1 (some centres not stated)",
    "valueType": "pIC50",
    "inequalitySign": "=",
    "endpointResult": 6.16
  },
  {
    "molecule": "CC(=O)O[C@@H]1/C=C(\\C)C(OC(=O)c2ccc(O)cc2)C/C=C(\\C)CCCC1(C)C (some centres not stated)",
    "valueType": "pIC50",
    "inequalitySign": "=",
    "endpointResult": 6.34
  },
  {
    "molecule": "C/C1=C\\[C@@H](O)C(C)(C)CCC[C@@]2(C)O[C@@H]2CC1OC(=O)c1ccc(O)cc1 (some centres not stated)",
    "valueType": "pIC50",
    "inequalitySign": "=",
    "endpointResult": 6.78
  },
  {
    "molecule": "C/C1=C\\CC(OC(=O)c2ccc(O)cc2)/C(C)=C/[C@@H](O)C(C)(C)CCC1 (some centres not stated)",
    "valueType": "pIC50",
    "inequalitySign": "=",
    "endpointResult": 6.81
  },
  {
    "molecule": "C/C1=C\\[C@@H](O)C(C)(C)CCC[C@](C)(O)[C@@H](O)CC1OC(=O)c1ccc(O)cc1 (some centres not stated)",
    "valueType": "pIC50",
    "inequalitySign": "=",
    "endpointResult": 5.73
  },
  {
    "molecule": "O=C(OC1CCCCCCCCCCC1)c1ccc(O)cc1",
    "valueType": "pIC50",
    "inequalitySign": "=",
    "endpointResult": 6.25
  },
  {
    "molecule": "C/C1=C\\[C@@H](O)C(C)(C)CCC[C@@](C)(O)[C@H](O)CC1OC(=O)c1ccc(O)cc1 (some centres not stated)",
    "valueType": "pIC50",
    "inequalitySign": "<",
    "endpointResult": 5.00
  }
]
